target: BSEP (Homo sapiens, UniProt O95342); assay: receptor profile (Table S4), second BSEP line; conditions: human
Sequence (O95342 whole entry): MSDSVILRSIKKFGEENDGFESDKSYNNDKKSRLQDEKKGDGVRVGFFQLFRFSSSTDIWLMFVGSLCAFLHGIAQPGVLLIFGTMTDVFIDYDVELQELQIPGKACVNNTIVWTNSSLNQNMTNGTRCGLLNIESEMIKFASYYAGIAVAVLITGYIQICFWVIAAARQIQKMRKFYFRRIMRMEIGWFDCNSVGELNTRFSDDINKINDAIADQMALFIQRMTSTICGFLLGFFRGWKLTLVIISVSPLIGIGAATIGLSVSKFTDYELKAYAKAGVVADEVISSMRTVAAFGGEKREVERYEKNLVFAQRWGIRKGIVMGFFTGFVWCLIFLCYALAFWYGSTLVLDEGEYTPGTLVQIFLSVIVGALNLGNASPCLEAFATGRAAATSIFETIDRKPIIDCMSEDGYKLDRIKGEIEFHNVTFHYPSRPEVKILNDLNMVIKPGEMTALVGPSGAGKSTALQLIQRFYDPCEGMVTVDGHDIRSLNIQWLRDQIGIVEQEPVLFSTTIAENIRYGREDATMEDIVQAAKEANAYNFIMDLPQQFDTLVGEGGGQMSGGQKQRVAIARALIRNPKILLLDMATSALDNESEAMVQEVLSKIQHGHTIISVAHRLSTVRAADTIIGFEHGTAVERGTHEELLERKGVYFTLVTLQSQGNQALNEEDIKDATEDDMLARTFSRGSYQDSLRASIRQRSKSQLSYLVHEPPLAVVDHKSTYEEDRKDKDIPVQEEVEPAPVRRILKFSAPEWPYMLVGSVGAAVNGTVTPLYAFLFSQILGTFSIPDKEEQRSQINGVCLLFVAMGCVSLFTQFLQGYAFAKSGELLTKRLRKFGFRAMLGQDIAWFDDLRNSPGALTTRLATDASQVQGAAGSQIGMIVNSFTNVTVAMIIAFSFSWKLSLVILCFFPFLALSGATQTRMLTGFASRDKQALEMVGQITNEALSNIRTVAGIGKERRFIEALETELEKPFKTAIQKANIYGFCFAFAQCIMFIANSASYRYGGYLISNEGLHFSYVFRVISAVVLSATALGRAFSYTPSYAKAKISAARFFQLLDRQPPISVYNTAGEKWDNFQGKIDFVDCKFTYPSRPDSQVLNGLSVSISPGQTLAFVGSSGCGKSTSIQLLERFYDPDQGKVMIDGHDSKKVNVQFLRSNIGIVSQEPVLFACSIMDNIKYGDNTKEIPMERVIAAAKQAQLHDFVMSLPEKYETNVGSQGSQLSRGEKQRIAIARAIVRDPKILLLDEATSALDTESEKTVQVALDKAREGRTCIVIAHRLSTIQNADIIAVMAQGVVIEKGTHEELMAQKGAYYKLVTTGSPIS
measuredParameter: inhibition at 10 µM (%)
Express it in %; write the number only.

Q: Consider the compound Cc1nc(C)c(C(=O)Nc2ccc(F)c(-c3nc4ncc(-c5ncccc5C)cn4n3)c2)o1 and give its measured inhibition at 10 µM.
A: 40

---

assay: brain/plasma exposure in mice; type: in vivo; conditions: mouse, brain, read-out: brain/plasma AUC ratio
measuredParameter: Kp
The answer should be a number; do not append a unit.

Q: Consider the compound Cc1nc(C)c(C(=O)Nc2ccc(F)c(-c3nc4ncc(-c5ncccc5C)cn4n3)c2)o1 and give its measured Kp.
A: 0.03

---

experiment: in vivo; details: male, Sprague-Dawley, rat, in vivo, iv, 3 mg/kg
measuredParameter: clearance (mL/min/kg)
Express it in mL/min/kg; write the number only.

Q: Consider the molecule Cc1nc(C)c(C(=O)Nc2ccc(F)c(-c3nc4ncc(-c5ncccc5C)cn4n3)c2)o1 and give its measured clearance.
A: 2.1

---

assay: in vivo; details: male, Beagle, dog, plasma, po, 1 mg/kg
measuredParameter: bioavailability (%)
Express it in %; write the number only.

Q: Consider the compound Cc1nc(C)c(C(=O)Nc2ccc(F)c(-c3nc4ncc(-c5ncccc5C)cn4n3)c2)o1 [compound 1] and give its measured bioavailability.
A: 44

---

molecular target: hERG (Homo sapiens); assay: hERG manual patch clamp assay; details: read-out: hERG channel IC50
Sequence (Q12809 whole entry): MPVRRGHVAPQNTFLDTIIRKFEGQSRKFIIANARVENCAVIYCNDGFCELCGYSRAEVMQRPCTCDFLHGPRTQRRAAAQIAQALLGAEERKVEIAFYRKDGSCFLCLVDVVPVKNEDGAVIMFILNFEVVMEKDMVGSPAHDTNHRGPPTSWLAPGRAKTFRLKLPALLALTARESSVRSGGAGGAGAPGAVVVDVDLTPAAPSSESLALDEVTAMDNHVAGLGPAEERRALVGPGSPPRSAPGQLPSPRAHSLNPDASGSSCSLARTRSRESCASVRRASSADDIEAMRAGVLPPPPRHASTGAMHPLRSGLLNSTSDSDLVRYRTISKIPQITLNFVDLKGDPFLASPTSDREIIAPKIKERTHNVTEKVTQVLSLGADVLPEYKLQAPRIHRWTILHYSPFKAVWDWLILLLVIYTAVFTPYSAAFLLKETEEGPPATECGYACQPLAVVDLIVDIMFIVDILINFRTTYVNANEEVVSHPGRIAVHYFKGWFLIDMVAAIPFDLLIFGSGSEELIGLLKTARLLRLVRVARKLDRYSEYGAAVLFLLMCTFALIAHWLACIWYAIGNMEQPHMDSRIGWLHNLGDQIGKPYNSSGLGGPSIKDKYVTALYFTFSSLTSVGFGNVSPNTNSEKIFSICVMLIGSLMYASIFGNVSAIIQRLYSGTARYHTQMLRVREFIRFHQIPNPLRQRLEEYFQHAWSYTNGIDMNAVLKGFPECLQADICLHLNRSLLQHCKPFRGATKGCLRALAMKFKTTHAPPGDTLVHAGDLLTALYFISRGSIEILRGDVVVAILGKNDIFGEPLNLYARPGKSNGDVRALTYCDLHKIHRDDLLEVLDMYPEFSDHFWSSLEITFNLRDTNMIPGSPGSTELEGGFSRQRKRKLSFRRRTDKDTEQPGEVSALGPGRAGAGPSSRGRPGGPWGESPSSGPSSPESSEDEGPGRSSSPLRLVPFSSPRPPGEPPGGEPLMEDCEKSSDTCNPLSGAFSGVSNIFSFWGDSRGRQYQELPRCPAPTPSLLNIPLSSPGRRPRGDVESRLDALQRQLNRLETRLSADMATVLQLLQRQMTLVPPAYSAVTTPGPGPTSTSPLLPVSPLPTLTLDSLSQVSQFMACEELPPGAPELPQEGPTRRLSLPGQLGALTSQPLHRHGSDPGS
measuredParameter: IC50

Q: Consider the molecule Cc1nc(C)c(C(=O)Nc2ccc(F)c(-c3nc4ncc(-c5ncccc5C)cn4n3)c2)o1 and give its measured IC50.
A: > 30 µM

---

test: pharmacokinetics in cynomolgus monkey; format: in vivo; settings: in vivo; male cynomolgus monkey, 0.3 mg/kg IV and 10 mg/kg PO
measuredParameter: bioavailability (%)
Express it in %; write the number only.

Q: Consider the compound Cc1nc(C)c(C(=O)Nc2ccc(F)c(-c3nc4ncc(-c5ncccc5C)cn4n3)c2)o1 [compound 1] and give its measured bioavailability.
A: 27

---

molecular target: Nav1.5 (Homo sapiens); test: receptor profile (Table S4); conditions: human
Sequence (Q14524 whole entry): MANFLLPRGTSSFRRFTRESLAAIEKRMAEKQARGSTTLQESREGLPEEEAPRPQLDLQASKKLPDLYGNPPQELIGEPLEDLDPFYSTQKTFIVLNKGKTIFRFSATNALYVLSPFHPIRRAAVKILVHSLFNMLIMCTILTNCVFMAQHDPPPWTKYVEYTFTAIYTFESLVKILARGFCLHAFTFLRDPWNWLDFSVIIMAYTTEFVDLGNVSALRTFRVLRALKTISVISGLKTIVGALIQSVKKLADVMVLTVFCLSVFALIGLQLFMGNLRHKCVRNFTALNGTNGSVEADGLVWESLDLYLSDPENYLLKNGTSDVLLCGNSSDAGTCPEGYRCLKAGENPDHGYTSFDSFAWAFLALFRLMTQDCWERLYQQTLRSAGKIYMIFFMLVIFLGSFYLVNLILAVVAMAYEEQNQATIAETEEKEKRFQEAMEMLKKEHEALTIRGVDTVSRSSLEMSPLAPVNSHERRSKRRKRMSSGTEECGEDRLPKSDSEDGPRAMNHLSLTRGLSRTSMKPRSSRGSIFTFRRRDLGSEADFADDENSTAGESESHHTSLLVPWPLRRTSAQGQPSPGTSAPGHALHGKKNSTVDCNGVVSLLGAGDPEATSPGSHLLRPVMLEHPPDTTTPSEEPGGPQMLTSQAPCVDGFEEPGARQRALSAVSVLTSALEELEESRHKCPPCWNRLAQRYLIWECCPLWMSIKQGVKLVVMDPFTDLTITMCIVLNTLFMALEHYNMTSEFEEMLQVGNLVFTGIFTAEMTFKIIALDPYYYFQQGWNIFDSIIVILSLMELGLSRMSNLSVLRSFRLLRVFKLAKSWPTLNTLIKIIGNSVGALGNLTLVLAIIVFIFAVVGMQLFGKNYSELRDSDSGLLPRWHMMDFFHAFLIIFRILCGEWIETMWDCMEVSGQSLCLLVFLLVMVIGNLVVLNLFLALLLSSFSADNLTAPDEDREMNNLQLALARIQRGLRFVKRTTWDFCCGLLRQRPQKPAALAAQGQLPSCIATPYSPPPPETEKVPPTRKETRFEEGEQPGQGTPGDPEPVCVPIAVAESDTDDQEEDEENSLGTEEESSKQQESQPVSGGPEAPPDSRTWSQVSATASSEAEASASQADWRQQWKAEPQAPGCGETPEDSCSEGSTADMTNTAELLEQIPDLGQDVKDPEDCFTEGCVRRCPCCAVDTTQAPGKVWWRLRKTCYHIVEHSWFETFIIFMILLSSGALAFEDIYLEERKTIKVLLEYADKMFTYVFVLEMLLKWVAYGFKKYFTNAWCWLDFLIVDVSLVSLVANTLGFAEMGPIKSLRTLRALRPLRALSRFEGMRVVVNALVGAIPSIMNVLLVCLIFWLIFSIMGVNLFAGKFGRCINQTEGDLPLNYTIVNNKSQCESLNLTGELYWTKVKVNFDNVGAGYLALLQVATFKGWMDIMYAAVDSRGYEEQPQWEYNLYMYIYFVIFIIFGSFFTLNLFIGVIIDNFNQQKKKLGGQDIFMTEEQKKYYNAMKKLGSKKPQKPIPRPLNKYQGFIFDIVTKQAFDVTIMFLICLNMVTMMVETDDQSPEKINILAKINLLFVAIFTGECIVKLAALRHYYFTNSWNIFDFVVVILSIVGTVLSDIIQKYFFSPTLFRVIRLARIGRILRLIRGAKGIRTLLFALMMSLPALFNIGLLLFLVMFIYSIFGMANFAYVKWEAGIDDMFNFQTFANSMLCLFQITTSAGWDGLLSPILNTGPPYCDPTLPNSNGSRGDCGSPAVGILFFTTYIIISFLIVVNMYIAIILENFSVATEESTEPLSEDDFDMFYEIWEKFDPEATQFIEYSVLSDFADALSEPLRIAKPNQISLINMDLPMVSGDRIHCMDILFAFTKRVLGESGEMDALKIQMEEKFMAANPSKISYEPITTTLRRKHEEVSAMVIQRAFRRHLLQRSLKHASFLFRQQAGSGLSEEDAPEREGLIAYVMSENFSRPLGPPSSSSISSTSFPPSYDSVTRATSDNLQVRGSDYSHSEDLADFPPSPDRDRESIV
measuredParameter: inhibition at 30 µM

Q: Consider the molecule Cc1nc(C)c(C(=O)Nc2ccc(F)c(-c3nc4ncc(-c5ncccc5C)cn4n3)c2)o1 [compound 1] and give its measured inhibition at 30 µM.
A: 3%

---

experiment: in vivo; conditions: Balb/c, mouse, plasma, po, 20 mg/kg
measuredParameter: bioavailability (%)
Express it in %; write the number only.

Q: Consider the molecule Cc1nc(C)c(C(=O)Nc2ccc(F)c(-c3nc4ncc(-c5ncccc5C)cn4n3)c2)o1 and give its measured bioavailability.
A: 46

---

target: PXR (Homo sapiens); test: receptor profile (Table S4); conditions: human
Sequence (O75469 whole entry): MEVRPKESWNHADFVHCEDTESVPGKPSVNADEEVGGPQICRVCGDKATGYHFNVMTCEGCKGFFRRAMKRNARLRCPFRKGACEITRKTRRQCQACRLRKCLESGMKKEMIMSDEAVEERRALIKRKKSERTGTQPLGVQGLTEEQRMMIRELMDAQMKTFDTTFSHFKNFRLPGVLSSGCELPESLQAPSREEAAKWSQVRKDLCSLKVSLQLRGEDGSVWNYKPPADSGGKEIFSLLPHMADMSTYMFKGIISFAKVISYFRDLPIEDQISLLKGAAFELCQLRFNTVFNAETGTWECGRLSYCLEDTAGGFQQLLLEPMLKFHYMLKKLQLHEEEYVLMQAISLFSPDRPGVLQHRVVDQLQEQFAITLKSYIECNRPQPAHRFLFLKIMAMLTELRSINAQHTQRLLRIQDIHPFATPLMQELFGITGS
measuredParameter: inhibition at 10 µM (%)
Express it in %; write the number only.

Q: Consider the compound Cc1nc(C)c(C(=O)Nc2ccc(F)c(-c3nc4ncc(-c5ncccc5C)cn4n3)c2)o1 and give its measured inhibition at 10 µM.
A: 0

---

assay: metabolite profile in monkey hepatocytes; format: in vitro ADME; details: 10 μM of 1 for 4 h, UV 250 nm, normalized to largest peak

testSmiles	abundance monkey
Cc1nc(CO)c(C(=O)Nc2ccc(F)c(-c3nc4ncc(-c5ncccc5C)cn4n3)c2)o1	+ (+ ≤25%)
Cc1nc(C)c(C(=O)Nc2ccc(F)c(-c3nc4ncc(-c5ncccc5CO)cn4n3)c2)o1	+ (+ ≤25%)
Cc1cccnc1-c1cnc2nc(-c3cc(NC(=O)c4oc(CO)nc4C)ccc3F)nn2c1	+ (+ ≤25%)
